target or test system: SARS-COV-2 RBD extracellular domain expressed with a C-terminal mouse IgG2a Fc (SARS-CoV-2)
assay details: Biacore SPR, mAb captured on anti-hFc, 25 C
reported property: Kd
Entry format: amount then unit.

| binder | Kd |
| --- | --- |
| mAb14258 (antibody, V domains shown) VH: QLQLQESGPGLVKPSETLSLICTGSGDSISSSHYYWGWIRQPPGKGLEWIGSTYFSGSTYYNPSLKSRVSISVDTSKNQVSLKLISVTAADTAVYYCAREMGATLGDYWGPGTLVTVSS VL: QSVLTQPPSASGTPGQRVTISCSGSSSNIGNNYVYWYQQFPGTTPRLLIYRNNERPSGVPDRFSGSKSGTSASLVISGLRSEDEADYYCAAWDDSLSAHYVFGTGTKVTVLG | 3.04 nM |

Query string: Name the reported Kd value associated with the binder mAb14256 (antibody, V domains shown) VH: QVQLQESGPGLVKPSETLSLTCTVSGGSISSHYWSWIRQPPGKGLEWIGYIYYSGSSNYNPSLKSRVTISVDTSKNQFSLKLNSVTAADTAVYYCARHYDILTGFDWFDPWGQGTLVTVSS VL: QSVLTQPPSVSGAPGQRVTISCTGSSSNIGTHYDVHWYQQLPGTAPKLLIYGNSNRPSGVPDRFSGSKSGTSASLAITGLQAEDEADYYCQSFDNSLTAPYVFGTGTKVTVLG
Result string: 0.0638 nM

Query string: Now consider mAb15157 (antibody, V domains shown) VH: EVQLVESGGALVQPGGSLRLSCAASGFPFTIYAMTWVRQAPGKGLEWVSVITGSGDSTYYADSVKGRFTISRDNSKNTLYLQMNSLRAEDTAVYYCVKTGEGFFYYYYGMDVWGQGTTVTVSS VL: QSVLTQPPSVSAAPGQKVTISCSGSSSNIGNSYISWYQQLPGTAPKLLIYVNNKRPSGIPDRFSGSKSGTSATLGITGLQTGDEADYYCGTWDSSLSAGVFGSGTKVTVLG .
Result string: 0.187 nM
